Hey, just so you know, these numbers are from patent US12201633B2.

Consider the following compounds and their measured EC50 readings.
- TESTED_ON: human CB2 receptor (Homo sapiens)
- ASSAY_NAME: PathHunter β-arrestin assay, CB2
Give just the numeric value; µM need not be written.

Here are 2 compounds together with their reported answers.
[
  {
    "STRUCTURE_SMILES_STRING": "CC(C)[C@@H](CO)NC(=O)c1nn(-c2c[n+]([O-])ccn2)c2c1C[C@@H]1C[C@H]21",
    "TESTED_ON": "human CB2 receptor (Homo sapiens)",
    "MEASURE_UNIT": "µM",
    "EC50": 0.0435
  },
  {
    "STRUCTURE_SMILES_STRING": "CC(C)(C)[C@@H](NC(=O)c1nn(-c2c[n+]([O-])ccn2)c2c1C[C@@H]1C[C@H]21)c1ccccn1",
    "TESTED_ON": "human CB2 receptor (Homo sapiens)",
    "MEASURE_UNIT": "µM",
    "EC50": 0.00457
  }
]

Q: # get_value(readout='EC50', item= `CNC(=O)[C@@H](NC(=O)c1nn(-c2c[n+]([O-])ccn2)c2c1C[C@H]1C[C@@H]21)c1ccccc1` )
A: 0.034

* * *

- TESTED_ON: human CB2 receptor (Homo sapiens)
- ASSAY_NAME: PathHunter β-arrestin assay, CB2
OBSERVATION_TYPE: EC50 (nM)
Give just the numeric value; nM need not be written.

Here are 3 compounds together with their reported answers.
[
  {
    "STRUCTURE_SMILES_STRING": "CC(C)(C)[C@@H](COP(=O)(O)O)NC(=O)c1nn(-c2c[n+]([O-])ccn2)c2c1C[C@H]1C[C@@H]21",
    "EC50 [nM]": 603
  },
  {
    "STRUCTURE_SMILES_STRING": "CC(C)(CO)NC(=O)c1nn(-c2cc(C#N)ccn2)c2c1C[C@H]1C[C@@H]21",
    "EC50 [nM]": 4.69
  },
  {
    "STRUCTURE_SMILES_STRING": "O=C(NC1(CF)CCC1)c1nn(-c2c[n+]([O-])ccn2)c2c1C[C@@H]1C[C@H]21",
    "EC50 [nM]": 10.5
  }
]

Q: # get_value(readout='EC50', item= `CC(C)(CF)NC(=O)c1nn(-c2c[n+]([O-])ccn2)c2c1C[C@@H]1C[C@H]21` )
A: 31.4

* * *

- TESTED_ON: human CB2 receptor (Homo sapiens, UniProt P34972)
- Sequence (P34972 whole entry): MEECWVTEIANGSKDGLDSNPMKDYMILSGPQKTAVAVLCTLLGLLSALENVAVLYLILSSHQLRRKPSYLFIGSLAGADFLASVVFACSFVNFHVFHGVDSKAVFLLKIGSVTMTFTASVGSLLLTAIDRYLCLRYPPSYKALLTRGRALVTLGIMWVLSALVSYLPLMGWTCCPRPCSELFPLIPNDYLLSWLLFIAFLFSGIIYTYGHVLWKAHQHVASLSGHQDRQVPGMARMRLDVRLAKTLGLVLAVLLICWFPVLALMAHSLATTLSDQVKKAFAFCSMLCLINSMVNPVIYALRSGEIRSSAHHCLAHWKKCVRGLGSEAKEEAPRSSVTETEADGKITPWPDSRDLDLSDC
- ASSAY_NAME: HTRF assay for direct cAMP measurement, CB2
- Type: cell-based
- Set-up: 93-0164 (CHO-K1 EA-Arrestin parental line); host or cells: CHO-K1 EA-Arrestin, clone #61
OBSERVATION_TYPE: EC50 (nM)
Give just the numeric value; nM need not be written.

[
  {
    "STRUCTURE_SMILES_STRING": "CC1(NC(=O)c2nn(-c3c[n+]([O-])ccn3)c3c2C[C@H]2C[C@@H]32)CCC1",
    "OBSERVATION_TYPE": "EC50",
    "OBSERVED_VALUE": 0.6
  },
  {
    "STRUCTURE_SMILES_STRING": "O=C(NC1(CO)CCC1)c1nn(-c2c[n+]([O-])ccn2)c2c1C[C@H]1C[C@@H]21",
    "OBSERVATION_TYPE": "EC50",
    "OBSERVED_VALUE": 10.2
  },
  {
    "STRUCTURE_SMILES_STRING": "O=C(N[C@H](CO)C1CCOCC1)c1nn(-c2cnccn2)c2c1C[C@H]1C[C@@H]21",
    "OBSERVATION_TYPE": "EC50",
    "OBSERVED_VALUE": 7.08
  }
]

Q: # get_value(readout='EC50', item= `O=C(N[C@H](CO)C1CCOCC1)c1nn(-c2c[n+]([O-])ccn2)c2c1C[C@H]1C[C@@H]21` )
A: 1.4

* * *

Consider the following molecules and their measured EC50 readings.
- TESTED_ON: hCB1 (Homo sapiens, UniProt P21554)
- Sequence (P21554 whole entry): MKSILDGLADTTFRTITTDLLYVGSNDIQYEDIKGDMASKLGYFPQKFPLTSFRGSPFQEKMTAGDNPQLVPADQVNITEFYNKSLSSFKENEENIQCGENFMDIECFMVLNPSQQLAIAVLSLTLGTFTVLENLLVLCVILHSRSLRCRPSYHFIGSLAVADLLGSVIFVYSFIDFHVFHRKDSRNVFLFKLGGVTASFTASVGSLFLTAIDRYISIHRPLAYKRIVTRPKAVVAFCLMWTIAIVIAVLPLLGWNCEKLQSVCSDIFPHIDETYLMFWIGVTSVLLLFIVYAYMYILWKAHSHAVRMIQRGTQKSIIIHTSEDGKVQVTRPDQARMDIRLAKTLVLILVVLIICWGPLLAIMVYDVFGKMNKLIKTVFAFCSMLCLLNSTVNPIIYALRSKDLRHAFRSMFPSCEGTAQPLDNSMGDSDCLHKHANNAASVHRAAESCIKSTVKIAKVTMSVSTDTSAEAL
- ASSAY_NAME: PathHunter β-arrestin assay, CB1
Give just the numeric value; nM need not be written.

Here are 8 molecules together with their reported answers.
[
  {
    "MOLECULE": "COC(=O)[C@@H](NC(=O)c1nn(-c2c[n+]([O-])ccn2)c2c1C[C@H]1C[C@@H]21)C(C)(C)C [Compound 746]",
    "OBSERVED_VALUE": 142
  },
  {
    "MOLECULE": "CNC(=O)[C@@H](NC(=O)c1nn(-c2cnccn2)c2c1C[C@H]1C[C@@H]21)C(C)(C)C [Compound 667]",
    "OBSERVED_VALUE": 145
  },
  {
    "MOLECULE": "CC(C)(CF)NC(=O)c1nn(-c2cc(Cl)ccn2)c2c1C[C@@H]1C[C@H]21 [Compound 897]",
    "OBSERVED_VALUE": 951
  },
  {
    "MOLECULE": "CC(C)(C)[C@@H](CF)NC(=O)c1nn(-c2c[n+]([O-])ccn2)c2c1C[C@H]1C[C@@H]21 [Compound 918]",
    "OBSERVED_VALUE": 437
  },
  {
    "MOLECULE": "N#Cc1ccnc(-n2nc(C(=O)N[C@H](CO)CC(F)(F)F)c3c2[C@H]2C[C@H]2C3)c1 [Compound 891]",
    "OBSERVED_VALUE": 11800
  },
  {
    "MOLECULE": "CCNC(=O)[C@@H](NC(=O)c1nn(-c2c[n+]([O-])ccn2)c2c1C[C@H]1C[C@@H]21)C(C)(C)C [Compound 728]",
    "OBSERVED_VALUE": 251
  },
  {
    "MOLECULE": "O=C(NC(CO)(CF)CF)c1nn(-c2cc(Cl)ccn2)c2c1C[C@@H]1C[C@H]21 [Compound 889]",
    "OBSERVED_VALUE": 4070
  },
  {
    "MOLECULE": "CNC(=O)[C@@H](NC(=O)c1nn(-c2c[n+]([O-])ccn2)c2c1C[C@H]1C[C@@H]21)C(C)(C)C [Compound 704]",
    "OBSERVED_VALUE": 228
  }
]

Q: # get_value(readout='EC50', item= CC(C)(CO)NC(=O)c1nn(-c2cc(C#N)ccn2)c2c1C[C@H]1C[C@@H]21 [Compound 644] )
A: 4470

Q: # get_value(readout='EC50', item= CC(C)(C)NC(=O)c1nn(-c2cnccn2)c2c1C[C@H]1C[C@@H]21 [Compound 593] )
A: 1330

Q: # get_value(readout='EC50', item= O=C(N[C@H](CO)C1CCOCC1)c1nn(-c2c[n+]([O-])ccn2)c2c1C[C@H]1C[C@@H]21 [Compound 841] )
A: 1140

* * *

- TESTED_ON: human CB2 receptor (Homo sapiens, UniProt P34972)
- ASSAY_NAME: HTRF assay for direct cAMP measurement, CB2
- Assay type: cell-based
- Set-up: 93-0164 (CHO-K1 EA-Arrestin parental line); host or cells: CHO-K1 EA-Arrestin, clone #61
Consider the following compounds and their measured pEC50 readings.
Lab note: report pEC50 as minus log10 of the concentration in molar units, number only.

Here are 2 compounds together with their reported answers.
[
  {
    "COMPOUND": "CC(C)[C@@H](CO)NC(=O)c1nn(-c2c[n+]([O-])ccn2)c2c1C[C@H]1C[C@@H]21 [Compound 690]",
    "TESTED_ON": "human CB2 receptor (Homo sapiens, UniProt P34972)",
    "pEC50": 8.75
  },
  {
    "COMPOUND": "O=C(NC1(C(F)(F)F)CCC1)c1nn(-c2cnccn2)c2c1C[C@@H]1C[C@H]21 [Compound 926]",
    "TESTED_ON": "human CB2 receptor (Homo sapiens, UniProt P34972)",
    "pEC50": 9.70
  }
]

The record that follows has no pEC50 shown yet.
Q: API: value(readout= pEC50, system= human CB2 receptor (Homo sapiens, UniProt P34972), query= CC(C)(CO)NC(=O)c1nn(-c2ccc(F)cc2F)c2c1C1CC1C2 (stereo not drawn) [Compound 515] )
A: 8.36

* * *

Consider the following compounds and their measured EC50 readings.
- TESTED_ON: human CB2 receptor (Homo sapiens, UniProt P34972)
- ASSAY_NAME: HTRF assay for direct cAMP measurement, CB2
- Format: cell-based
- Parameters: 93-0164 (CHO-K1 EA-Arrestin parental line); host or cells: CHO-K1 EA-Arrestin, clone #61
Give just the numeric value; nM need not be written.

Q: # get_value(readout='EC50', item= `CC(C)(CO)NC(=O)c1nn(-c2ccc(Cl)cn2)c2c1C[C@H]1C[C@@H]21` )
A: 3.83

Q: # get_value(readout='EC50', item= `CC(C)(NC(=O)c1nn(-c2c[n+]([O-])ccn2)c2c1C[C@@H]1C[C@H]21)C(F)(F)F` )
A: 0.2

Q: # get_value(readout='EC50', item= `CC(CO)(CO)NC(=O)c1nn(-c2cc(C#N)ccn2)c2c1C[C@H]1C[C@@H]21` )
A: 2.62

Q: # get_value(readout='EC50', item= `CNC(=O)[C@@H](NC(=O)c1nn(-c2c[n+]([O-])ccn2)c2c1C[C@H]1C[C@@H]21)C(C)(C)C` )
A: 0.2

Q: # get_value(readout='EC50', item= `O=C(N[C@H]1c2ccccc2C[C@H]1O)c1nn(-c2c[n+]([O-])ccn2)c2c1C[C@@H]1C[C@H]21` )
A: 0.2
